pKi: −log10 of the molar value.
Hi! I'm sharing some pKi results obtained with Adenosine receptor A3 (Homo sapiens, UniProt P0DMS8).
Sequence (P0DMS8 whole entry): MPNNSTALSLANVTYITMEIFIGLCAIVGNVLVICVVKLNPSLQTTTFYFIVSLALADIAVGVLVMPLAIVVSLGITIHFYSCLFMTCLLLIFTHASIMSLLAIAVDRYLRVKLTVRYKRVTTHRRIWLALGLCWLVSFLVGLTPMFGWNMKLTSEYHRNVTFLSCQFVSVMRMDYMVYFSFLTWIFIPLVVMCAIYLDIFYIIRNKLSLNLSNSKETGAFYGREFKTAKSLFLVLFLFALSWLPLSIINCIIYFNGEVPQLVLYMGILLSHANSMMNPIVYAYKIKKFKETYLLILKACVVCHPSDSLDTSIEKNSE
quantity name: pKi

smiles record	quantity name	meas value
Cc1ccc(NC(=O)Nc2nc3nn(CCC(C)C)cc3c3nc(-c4ccco4)nn23)cc1	pKi	8.13
CCCn1cc2c(nc(NC(=O)NC(C)C)n3nc(-c4ccco4)nc23)n1	pKi	7.68
CCOC(=O)Cc1ccc(NC(=O)Nc2nc3nn(C)cc3c3nc(-c4ccco4)nn23)cc1	pKi	9.09
CCCn1cc2c(nc(NC(=O)NC(C)(C)C)n3nc(-c4ccco4)nc23)n1	pKi	7.82
Cc1ccc(NC(=O)Nc2nc3nn(CC4CCCCC4)cc3c3nc(-c4ccco4)nn23)cc1	pKi	8.23
CC(C)CCn1cc2c(nc(NC(=O)NC(C)C)n3nc(-c4ccco4)nc23)n1	pKi	7.19
CC(C)CCn1cc2c(nc(NC(=O)CCCNC(=O)OC(C)(C)C)n3nc(-c4ccco4)nc23)n1	pKi	5.60
CCCCCCCCn1cc2c(nc(NC(=O)Nc3ccc(C)cc3)n3nc(-c4ccco4)nc23)n1	pKi	8.35
CC(C)(C)NC(=O)Nc1nc2nn(CCc3ccccc3)cc2c2nc(-c3ccco3)nn12	pKi	8.31
